assay_target: human chemokine receptor CCR3 (Homo sapiens, UniProt P51677)
Sequence (P51677 1-355): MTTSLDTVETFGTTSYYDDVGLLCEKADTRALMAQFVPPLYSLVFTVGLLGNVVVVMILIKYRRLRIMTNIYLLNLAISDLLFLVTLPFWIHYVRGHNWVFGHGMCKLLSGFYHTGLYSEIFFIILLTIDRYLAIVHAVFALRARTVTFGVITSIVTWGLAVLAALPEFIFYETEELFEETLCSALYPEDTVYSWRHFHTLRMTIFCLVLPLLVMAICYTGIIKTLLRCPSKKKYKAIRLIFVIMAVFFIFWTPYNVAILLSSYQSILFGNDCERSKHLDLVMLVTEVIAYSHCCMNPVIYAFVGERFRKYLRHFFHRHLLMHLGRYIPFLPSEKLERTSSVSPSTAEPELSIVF
quantity_kind: Ki (nM)

| molecule | number |
| --- | --- |
| Cc1cc(-c2nnnn2C)cc(NC(=O)[C@H]2CCC(=O)N2C2CCN(Cc3ccc(Cl)c(C)c3)CC2)n1 [Example 196] | 95 |
| COc1cc(OC)nc(CNC(=O)[C@@H]2CCC(=O)N2C2CCN(Cc3ccc(Cl)c(C)c3)CC2)n1 [Example 50] | 1290 |
| Cc1cc(CN2CCC(N3C(=O)CC[C@@H]3C(=O)Nc3ccc4c(c3)CC(N(C)C)C4)CC2)ccc1Cl (stereo partly shown) [Example 64] | 545 |
| CNC(=O)c1cccc(NC(=O)[C@H]2CCC(=O)N2C2CC3CCC(C2)N3Cc2ccc(Cl)c(C)c2)c1 (stereo partly shown) [Example 84] | 232 |

---

assay_target: human chemokine receptor CCR3 (Homo sapiens, UniProt P51677)
Construct: expressed in transfected cells; host or cells: K562 cell line (hCCR3-C1 cells), membrane preparation
Sequence (P51677 1-355): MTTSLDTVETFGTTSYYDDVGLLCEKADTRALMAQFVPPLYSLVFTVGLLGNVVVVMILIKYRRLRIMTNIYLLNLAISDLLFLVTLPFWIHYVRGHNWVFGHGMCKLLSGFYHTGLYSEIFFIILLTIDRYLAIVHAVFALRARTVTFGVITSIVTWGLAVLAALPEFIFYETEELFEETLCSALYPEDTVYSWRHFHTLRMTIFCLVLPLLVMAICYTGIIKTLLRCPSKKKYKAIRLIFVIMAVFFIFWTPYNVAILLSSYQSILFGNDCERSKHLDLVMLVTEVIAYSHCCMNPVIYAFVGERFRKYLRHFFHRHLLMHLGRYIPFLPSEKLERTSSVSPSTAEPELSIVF
experiment_description: CCR3 receptor binding assay (SPA, 125I-eotaxin-1 displacement, hCCR3-C1 K562 cell membranes)
test_settings: 1 μM test compound; human Eotaxin-1 at human CCR3-Rezeptor; read-out: CCR3 % inh @ 1 μM

| molecule | inhibition at 1 µM / % |
| --- | --- |
| Cc1cc(CN2CCC(N3C(=O)CC[C@@H]3C(=O)Nc3cc(C(N)=O)cc(C(=O)N(C)C)c3)CC2)ccc1Cl | 99 |
| CCOC(=O)Cc1csc(NC(=O)[C@H]2CCC(=O)N2C2CCN(Cc3ccc(Cl)c(C)c3)CC2)n1 | 75 |
| Cc1cc(CN2CCC(N3C(=O)CC[C@@H]3C(=O)N3CCCc4ccccc43)CC2)ccc1Cl | 38 |
| CCn1nccc1CNC(=O)[C@H]1CCC(=O)N1C1CCN(Cc2ccc(Cl)c(C)c2)CC1 | 66 |
| Cc1cc(CN2CCC(N3C(=O)CC[C@@H]3C(=O)Nc3cccc(N4CCNC4=O)c3)CC2)ccc1Cl | 100 |
| Cc1cc(CN2CCC(N3C(=O)CC[C@@H]3C(=O)Nc3cccc(-c4cnco4)c3)CC2)ccc1Cl | 97 |
| Cc1cc(CN2CCC(N3C(=O)CC[C@@H]3C(=O)Nc3cccc(N4CCN(C)C4=O)c3)CC2)ccc1Cl | 96 |
| Cc1cc(CN2CCC(N3C(=O)CC[C@@H]3C(=O)Nc3cc(C(=O)N(C)C)cc(C(C)C)n3)CC2)ccc1Cl | 99 |
| Cc1cc(CN2CCC(N3C(=O)CC[C@@H]3C(=O)Nc3cc(C(=O)N(C)C)cc(C(=O)N(C)C)c3)CC2)ccc1Cl | 99 |
| Cc1cc(CN2CCC(N3C(=O)CC[C@@H]3C(=O)Nc3cccc(S(=O)(=O)N4CCCCC4)c3)CC2)ccc1Cl | 84 |
| Cc1cc(CN2CCC(N3C(=O)CC[C@@H]3C(=O)Nc3cccc(S(=O)(=O)CCO)c3)CC2)ccc1Cl | 97 |
| Cc1cc(CN2CCC(N3C(=O)CC[C@H]3C(=O)Nc3n[nH]c4ccccc34)CC2)ccc1Cl | 63 |
| CNC(=O)c1cccc(NC(=O)[C@H]2CCC(=O)N2C2CCN(Cc3ccc(F)cc3)CC2)c1 | 69 |
| CNC(=O)c1cccc(N(C)C(=O)[C@H]2CCC(=O)N2C2CCN(Cc3ccc(Cl)c(C)c3)CC2)c1 | 60 |
| Cc1cc(CN2CCC(N3C(=O)CC[C@H]3C(=O)N3CCc4c(F)ccc(F)c4C3)CC2)ccc1Cl | 74 |
| Cc1cc(CN2CCC(N3C(=O)CC[C@H]3C(=O)NCc3noc(C4CCCC4)n3)CC2)ccc1Cl | 31 |
| CNC(=O)c1cc(F)cc(NC(=O)[C@H]2CCC(=O)N2C2CCN(Cc3ccc(Cl)c(C)c3)CC2)c1 | 97 |
| COc1ccc(NC(=O)[C@H]2CCC(=O)N2C2CCN(Cc3ccc(Cl)c(C)c3)CC2)cc1C(=O)N(C)C | 95 |
| Cc1nc(C2(NC(=O)[C@@H]3CCC(=O)N3C3CCN(Cc4ccc(Cl)c(C)c4)CC3)CCCC2)no1 | 30 |
| CCCCS(=O)(=O)NC1CCCN(C(=O)[C@@H]2CCC(=O)N2C2CCN(Cc3ccc(Cl)c(C)c3)CC2)C1 (some centres unmarked) | 41 |
| Cc1cc(CN2CCC(N3C(=O)CC[C@@H]3C(=O)Nc3cccc(-c4nc[nH]n4)c3)CC2)ccc1Cl | 98 |
| Cc1cc(CN2CCC(N3C(=O)CC[C@@H]3C(=O)Nc3cc(C(=O)N4CCCC4)ccn3)CC2)ccc1Cl | 101 |
| COC(=O)CC(NC(=O)[C@@H]1CCC(=O)N1C1CCN(Cc2ccc(Cl)c(C)c2)CC1)c1ccccn1 (some centres unmarked) | 50 |
| Cc1cc(CN2CCC(N3C(=O)N(C)C[C@H]3C(=O)Nc3cccc(-c4nc[nH]n4)c3)CC2)ccc1Cl | 89 |
| Cc1cc(CN2CCC(N3C(=O)CC[C@@H]3C(=O)Nc3nc(C(C)C)c(C(=O)N(C)C)s3)CC2)ccc1Cl | 100 |
| Cc1cc(CN2CCC(N3C(=O)CC[C@@H]3C(=O)N3CCc4cccc(Br)c4C3)CC2)ccc1Cl | 90 |
| Cc1cc(CN2CCC(N3C(=O)CC[C@@H]3C(=O)Nc3cccc(-c4nnn(C)n4)c3)CC2)ccc1Cl | 98 |
| COc1cc(OC)nc(CNC(=O)[C@@H]2CCC(=O)N2C2CCN(Cc3ccc(Cl)c(C)c3)CC2)n1 | 41 |
| CCNS(=O)(=O)c1cccc(NC(=O)[C@@H]2CCC(=O)N2C2CCN(Cc3ccc(Cl)c(C)c3)CC2)c1 | 84 |

---

Measurement record for UniProtKB P51677; quantity recorded: Ki.
quantity_kind: Ki

| molecule | quantity_kind | result |
| --- | --- | --- |
| CNC(=O)c1cc(NC(=O)[C@H]2CCC(=O)N2C2CCN(Cc3ccc(Cl)c(C)c3)CC2)cc(C(=O)NC)c1 | Ki | 0.007 µM |
| CCS(=O)(=O)N(CC(=O)N(C)C)c1cccc(NC(=O)[C@H]2CCC(=O)N2C2CC3CCC(C2)N3Cc2ccc(Cl)c(C)c2)c1 (stereo partly shown) | Ki | 0.052 µM |
| Cc1cc(CN2CCC(N3C(=O)CC[C@@H]3C(=O)Nc3cc(C(=O)N(C)C)ccn3)CC2)ccc1Cl | Ki | 0.008 µM |
| Cc1cc(CN2CCC(N3C(=O)CC[C@@H]3C(=O)Nc3cc(C(=O)N(C)C)cc(C(C)C)n3)CC2)ccc1Cl | Ki | 0.004 µM |
| Cc1cc(CN2CCC(N3C(=O)CC[C@@H]3C(=O)Nc3cc(-c4c(C)noc4C)ccn3)CC2)ccc1Cl | Ki | 0.006 µM |
| Cc1cc(CN2CCC(N3C(=O)N(C)C[C@@H]3C(=O)Nc3cccc(-c4cc[nH]n4)c3)CC2)ccc1Cl | Ki | 0.034 µM |
| Cc1cccc(NC(=O)[C@@H]2CCC(=O)N2C2CCN(Cc3ccc(Cl)c(C)c3)CC2)n1 | Ki | 0.229 µM |
| CNC(=O)c1cccc(NC(=O)[C@H]2CCC(=O)N2C2CCN(Cc3ccc(C)c(C)c3)CC2)c1 | Ki | 0.247 µM |
| Cc1cc(CN2CCC(N3C(=O)CC[C@@H]3C(=O)Nc3cccc(N4CCN(C)C4=O)c3)CC2)ccc1Cl | Ki | 0.007 µM |
| Cc1cc(CN2CCC(N3C(=O)CC[C@@H]3C(=O)Nc3cccc(C(=O)N(C)CCO)c3)CC2)ccc1Cl | Ki | 0.019 µM |
| Cc1cc(CN2CCC(N3C(=O)CC[C@H]3C(=O)NC3CCN(c4ccccn4)CC3)CC2)ccc1Cl | Ki | 0.43 µM |
| Cc1cc(CN2CCC(N3C(=O)CC[C@@H]3C(=O)Nc3cc(F)cc(C(=O)N(C)C)c3)CC2)ccc1Cl | Ki | 0.011 µM |
| Cc1cc(CN2CCC(N3C(=O)CC[C@@H]3C(=O)Nc3cccc(-c4nc[nH]n4)c3)CC2)ccc1Cl | Ki | 0.02 µM |
| CNC(=O)c1cc(Cl)cc(NC(=O)[C@H]2CCC(=O)N2C2CCN(Cc3ccc(Cl)c(C)c3)CC2)c1 | Ki | 0.019 µM |
| Cc1cc(CN2CCC(N3C(=O)CC[C@@H]3C(=O)Nc3cc(C4CC4)nn3C)CC2)ccc1Cl | Ki | 0.027 µM |
| Cc1cc(CN2C3CCC2CC(N2C(=O)CC[C@@H]2C(=O)Nc2cccc(N(CC(=O)N(C)C)S(=O)(=O)C4CC4)c2)C3)ccc1Cl (stereo partly shown) | Ki | 0.05 µM |
| Cc1nccc(-c2cccc(NC(=O)[C@H]3CCC(=O)N3C3CCN(Cc4ccc(Cl)c(C)c4)CC3)c2)n1 | Ki | 0.022 µM |
| Cc1cc(CN2CCC(N3C(=O)CC[C@@H]3C(=O)Nc3cccc(C(=O)N(C)Cc4ccco4)c3)CC2)ccc1Cl | Ki | 0.01 µM |
| Cc1cc(CN2C3CCC2CC(N2C(=O)CC[C@@H]2C(=O)Nc2cccc(N(CC(=O)N4CCC4)S(C)(=O)=O)c2)C3)ccc1Cl (stereo partly shown) | Ki | 0.03 µM |
| Cc1nc(C2(NC(=O)[C@@H]3CCC(=O)N3C3CCN(Cc4ccc(Cl)c(C)c4)CC3)CCCC2)no1 | Ki | 1.61 µM |
| Cc1cc(CN2CCC(N3C(=O)CC[C@@H]3C(=O)Nc3cc(C(=O)N(C)C)cc(C4CC4)n3)CC2)ccc1Cl | Ki | 0.002 µM |
| COC(=O)c1ccc2c(c1)CCN(C(=O)[C@H]1CCC(=O)N1C1CCN(Cc3ccc(Cl)c(C)c3)CC1)C2 | Ki | 0.67 µM |
| Cc1cc(CN2CCC(N3C(=O)N(C)C[C@H]3C(=O)Nc3cccc(-c4nc[nH]n4)c3)CC2)ccc1Cl | Ki | 0.071 µM |
| CCS(=O)(=O)N(CC(=O)N(C)C)c1cccc(NC(=O)[C@H]2CCC(=O)N2C2CCN(Cc3ccc(Cl)c(C)c3)CC2)c1 | Ki | 0.011 µM |
| Cc1cc(NC(=O)[C@H]2CCC(=O)N2C2CCN(Cc3ccc(Cl)c(C)c3)CC2)cc(C(=O)N(C)CCO)c1 | Ki | 0.006 µM |
| COC(=O)CC(NC(=O)[C@@H]1CCC(=O)N1C1CCN(Cc2ccc(Cl)c(C)c2)CC1)c1ccccn1 (stereo partly shown) | Ki | 0.669 µM |
| Cc1cc(CN2CCC(N3C(=O)CC[C@H]3C(=O)N3CCc4ccc(F)cc4C3)CC2)ccc1Cl | Ki | 0.922 µM |
| CN1C[C@H](C(=O)Nc2cc(C3CC3)nn2C)N(C2CCN(Cc3ccc(OC(F)(F)F)c(F)c3)CC2)C1=O | Ki | 1.25 µM |
